Just for reference, PubChem BioAssay is where these values come from.

# Lookup of reported inhibition keyed by entry
Experiment: inhibitors of the yeast RAM network, pilot screen, dse1pr::URA3 reporter, 5-FOA selection (AID 869);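 note: 0% = DMSO wells with no growth and 100% = 10 µM 1-NA-PP1 with full growth; RAM network block rescues cells from 5-FOA so hits raise OD615 growth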
Conditions: S. cerevisiae dse1pr::URA3 5-FOA growth, OD615, 2 d; at 10 µM; active compounds read high; strain carries analog-sensitive mutant Cbk1 kinase
Numeric only. Scale: %

CCNC(=O)c1c(C)nc2ccccn12	-0.1

## Task Find the recorded inhibition belonging to CCC(C)NC(=O)c1ccc(NC(=O)C2CCCO2)cc1 (centres undefined) and report it.
## Result 4.56

## Task Would you mind doing COc1ccc(N(CC(=O)Nc2ccc(C)cn2)S(=O)(=O)c2c(C)nn(C)c2C)cc1 as well?
## Result 0.055

## Task Would you mind doing Cc1ccc(S(=O)(=O)NC2OC(=O)C(Cl)=C2Cl)cc1 (centres undefined) as well?
## Result 0.495

## Task Would you mind doing COC(=O)C1=C(C)OC(N)=C(C#N)C1c1ccccc1F (centres undefined) as well?
## Result -0.37

## Task Would you mind doing O=C1CC(c2nc3ccccc3[nH]2)CN1c1cccc(C(F)(F)F)c1 (centres undefined) as well?
## Result 1.1

## Task Would you mind doing CCCS(=O)(=O)NCCc1cc2ccc(OC)cc2[nH]c1=O as well?
## Result 2.56

## Task Would you mind doing CCCn1c(NCc2ccc(N(C)C)cc2)nc2ccccc21 as well?
## Result 0.405

## Task Would you mind doing COc1ccccc1N=C(C)C1=C(O)CSC1=O as well?
## Result -0.17

## Task Would you mind doing C=CCSc1nnc2c(n1)[nH]c1c(C)cccc12 as well?
## Result 1.71

## Task Would you mind doing O=C(NCc1ccccc1)c1ccc(/C=N/O)nc1 as well?
## Result 2.25

## Task Would you mind doing COc1ccc(C(=O)N2CCC(C(=O)Nc3ccc(OC)c(OC)c3)CC2)cc1 as well?
## Result 1.28

## Task Would you mind doing COc1cccc(-c2nc(CS(=O)(=O)CC(=O)NCCC(C)C)c(C)o2)c1 as well?
## Result 0.36

## Task Would you mind doing O=C(CCS(=O)(=O)c1cccs1)N1CCCC1 as well?
## Result 2.58

## Task Would you mind doing COC1=C(OC)c2ccccc2C(C(=O)O)N/C1=C(/C)Nc1ccncc1 (centres undefined) as well?
## Result 1.11

## Task Would you mind doing O=C(O)CCC(=O)NCc1ccc2[nH]c3c(c2c1)CCCC3 as well?
## Result 1.51

## Task Would you mind doing Cc1c(C(=O)NCc2ccccc2)oc2ccc(S(=O)(=O)N3CCCC3)cc12 as well?
## Result 1.49

----------
Assay: inhibitors of the yeast RAM network, pilot screen, dse1pr::URA3 reporter, 5-FOA selection (AID 869);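 note: 0% = DMSO wells with no growth and 100% = 10 µM 1-NA-PP1 with full growth; RAM network block rescues cells from 5-FOA so hits raise OD615 growth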
Settings: S. cerevisiae dse1pr::URA3 5-FOA growth, OD615, 2 d; at 10 µM; active compounds read high; strain carries analog-sensitive mutant Cbk1 kinase
Returns Satisfied if the recorded inhibition is greater than or equal to 1%, and Not satisfied otherwise.

Sample answers from the record:
CCC(C)Sc1nc2c(c(=O)[nH]c(=O)n2C)n1Cc1ccccc1Cl (stereo unspecified)	Not satisfied
COc1ccc(C2CC(c3cccc(C)c3)n3nc(N)nc3N2)cc1 (stereo unspecified)	Satisfied
CSc1ccc(S(=O)(=O)Nc2ccc3c(c2)OCCO3)cc1	Satisfied
CC(=O)c1c(NC(=O)C(C)C)nc(C)nc1-c1ccccc1	Satisfied
CCOc1ccc(C(F)(F)F)cc1NC(C)=O	Not satisfied
O=S(=O)(c1ccc(Br)cc1)N1CCn2c(nc3ccccc32)C1	Satisfied
CC(=O)c1ccc(OCC(O)CN2CCN(c3ccccn3)CC2)cc1 (stereo unspecified)	Satisfied
CCN1CCN(CCNC(=O)CS(=O)(=O)Cc2nc(-c3ccc(C)cc3)oc2C)CC1	Not satisfied

## Task Decide: is the reported value of inhibition for CNC(=O)c1c(NC(=O)c2ccc(S(=O)(=O)N3CCOCC3)cc2)sc2c1CCC2 equal to or greater than 1%?
## Result Not satisfied

## Task Would you mind doing CCOc1cc2c(cc1OCC)C(c1ccc(O)c(OC)c1)NCC2 (stereo unspecified) as well?
## Result Satisfied

## Task Would you mind doing CC(NC(=O)Cc1ccccc1)c1nc2ccccc2[nH]1 (stereo unspecified) as well?
## Result Not satisfied
